B1: glmS ribozyme (parent)
chain: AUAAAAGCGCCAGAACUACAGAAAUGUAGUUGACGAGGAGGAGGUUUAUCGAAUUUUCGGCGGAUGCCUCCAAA

Variants of: B1
TEST DESCRIPTION: self-cleavage kobs at 640 uM GlcN6P; higher = faster cleavage; RNA array
CONDITION LABEL: with glucosamine-6-phosphate
This sample holds only a part of the variants without activity.
In this section we review reported self-cleavage kobs at 640 uM GlcN6P values for a set of variants.

{"MUTANT NAME": "U46A C71U", "self-cleavage kobs at 640 uM GlcN6P": "0.000874 s⁻¹"}
{"MUTANT NAME": "G7U C8G G51C", "self-cleavage kobs at 640 uM GlcN6P": "< 1e-05 s⁻¹"}
{"MUTANT NAME": "C10A A64U U69G", "self-cleavage kobs at 640 uM GlcN6P": "0.000351 s⁻¹"}
{"MUTANT NAME": "C11U C16A U30A G32C U69G", "self-cleavage kobs at 640 uM GlcN6P": "0.000926 s⁻¹"}
{"MUTANT NAME": "G38U U46G G60C", "self-cleavage kobs at 640 uM GlcN6P": "< 1e-05 s⁻¹"}
{"MUTANT NAME": "G13U G40U G63C", "self-cleavage kobs at 640 uM GlcN6P": "< 1e-05 s⁻¹"}
{"MUTANT NAME": "G13U A14G G29C U49A", "self-cleavage kobs at 640 uM GlcN6P": "< 1e-05 s⁻¹"}
{"MUTANT NAME": "C16A C68U", "self-cleavage kobs at 640 uM GlcN6P": "3.93e-05 s⁻¹"}
{"MUTANT NAME": "A48G U54G", "self-cleavage kobs at 640 uM GlcN6P": "6.14e-05 s⁻¹"}
{"MUTANT NAME": "G9U A12G C61A", "self-cleavage kobs at 640 uM GlcN6P": "3.47e-05 s⁻¹"}
{"MUTANT NAME": "A12U U57G", "self-cleavage kobs at 640 uM GlcN6P": "6.1e-05 s⁻¹"}
{"MUTANT NAME": "G13U A15G G35C A52U", "self-cleavage kobs at 640 uM GlcN6P": "< 1e-05 s⁻¹"}
{"MUTANT NAME": "A42C G44C", "self-cleavage kobs at 640 uM GlcN6P": "< 1e-05 s⁻¹"}
{"MUTANT NAME": "G35A C68A", "self-cleavage kobs at 640 uM GlcN6P": "< 1e-05 s⁻¹"}
{"MUTANT NAME": "A64G", "self-cleavage kobs at 640 uM GlcN6P": "0.0109 s⁻¹"}
{"MUTANT NAME": "G41C U46A G60C", "self-cleavage kobs at 640 uM GlcN6P": "< 1e-05 s⁻¹"}
{"MUTANT NAME": "A42C A52U C61U", "self-cleavage kobs at 640 uM GlcN6P": "< 1e-05 s⁻¹"}
{"MUTANT NAME": "G37U G60A", "self-cleavage kobs at 640 uM GlcN6P": "< 1e-05 s⁻¹"}
{"MUTANT NAME": "C58G A64G C68A", "self-cleavage kobs at 640 uM GlcN6P": "0.00061 s⁻¹"}
{"MUTANT NAME": "A6G A15U A52U", "self-cleavage kobs at 640 uM GlcN6P": "< 1e-05 s⁻¹"}
{"MUTANT NAME": "C10U U47G G51U U57C C58G A64U", "self-cleavage kobs at 640 uM GlcN6P": "< 1e-05 s⁻¹"}
{"MUTANT NAME": "A12C U47C", "self-cleavage kobs at 640 uM GlcN6P": "0.000953 s⁻¹"}
{"MUTANT NAME": "A39G A52U C61G A64C", "self-cleavage kobs at 640 uM GlcN6P": "< 1e-05 s⁻¹"}
{"MUTANT NAME": "C50G C71U", "self-cleavage kobs at 640 uM GlcN6P": "0.000194 s⁻¹"}
{"MUTANT NAME": "C34U G63A G66U", "self-cleavage kobs at 640 uM GlcN6P": "< 1e-05 s⁻¹"}
{"MUTANT NAME": "C16G G29A G40A A42C", "self-cleavage kobs at 640 uM GlcN6P": "< 1e-05 s⁻¹"}
{"MUTANT NAME": "U30G G63A", "self-cleavage kobs at 640 uM GlcN6P": "< 1e-05 s⁻¹"}
{"MUTANT NAME": "G29U A53G", "self-cleavage kobs at 640 uM GlcN6P": "0.000805 s⁻¹"}
{"MUTANT NAME": "A6G G43C C68G", "self-cleavage kobs at 640 uM GlcN6P": "0.000423 s⁻¹"}
{"MUTANT NAME": "C8U G32U C68A", "self-cleavage kobs at 640 uM GlcN6P": "< 1e-05 s⁻¹"}
{"MUTANT NAME": "U55G", "self-cleavage kobs at 640 uM GlcN6P": "0.0103 s⁻¹"}
{"MUTANT NAME": "G43U U65A", "self-cleavage kobs at 640 uM GlcN6P": "< 1e-05 s⁻¹"}
{"MUTANT NAME": "G9U C19A G62U G63U", "self-cleavage kobs at 640 uM GlcN6P": "< 1e-05 s⁻¹"}
{"MUTANT NAME": "C8G G13C G38U C50G", "self-cleavage kobs at 640 uM GlcN6P": "4.5e-05 s⁻¹"}
{"MUTANT NAME": "A36G G51U", "self-cleavage kobs at 640 uM GlcN6P": "< 1e-05 s⁻¹"}
{"MUTANT NAME": "A12U C34G G51U U57A U65G", "self-cleavage kobs at 640 uM GlcN6P": "< 1e-05 s⁻¹"}
{"MUTANT NAME": "U54G U65C", "self-cleavage kobs at 640 uM GlcN6P": "0.000211 s⁻¹"}
{"MUTANT NAME": "C8A G13A G37U C67U C68U", "self-cleavage kobs at 640 uM GlcN6P": "0.000297 s⁻¹"}
{"MUTANT NAME": "A12G G29U G37C", "self-cleavage kobs at 640 uM GlcN6P": "< 1e-05 s⁻¹"}
{"MUTANT NAME": "A6G C11U G43C", "self-cleavage kobs at 640 uM GlcN6P": "< 1e-05 s⁻¹"}
{"MUTANT NAME": "U47G A53C", "self-cleavage kobs at 640 uM GlcN6P": "0.000873 s⁻¹"}
{"MUTANT NAME": "A12G U57A G60U", "self-cleavage kobs at 640 uM GlcN6P": "< 1e-05 s⁻¹"}
{"MUTANT NAME": "U57G G60C", "self-cleavage kobs at 640 uM GlcN6P": "< 1e-05 s⁻¹"}
{"MUTANT NAME": "G7A A39U U49A", "self-cleavage kobs at 640 uM GlcN6P": "< 1e-05 s⁻¹"}
{"MUTANT NAME": "G13A U45A U49A", "self-cleavage kobs at 640 uM GlcN6P": "< 1e-05 s⁻¹"}
{"MUTANT NAME": "U30G A48G C71U", "self-cleavage kobs at 640 uM GlcN6P": "< 1e-05 s⁻¹"}
